System: MCF-10A normal breast epithelial cell line
Assay: MTT survival assay, MCF-10A cells
Assay type: cell-based, human
Conditions: MTT growth inhibition, 96 hours exposure
Reported IC50 is given for each of the following compounds.
Supply the numeric figure in µM, leaving out any unit text.

                                   compound  endpoint_result
0  O=C(O)COc1ccc(C(=O)/C=C/c2ccc(Cl)c(Cl)c2)cc1 [Compound 9, reference compound]               12
1  O=C(O)COc1ccc(C(=O)/C=C/c2ccc(Cl)c(Cl)c2)cc1 [Compound 3g, reference compound]               13
2  O=C(/C=C/c1ccc(I)cc1)c1ccc(B(O)O)cc1 [Compound 3a]               75
3  O=C(/C=C/c1ccc(F)c(Br)c1)c1ccc(B(O)O)cc1 [Compound 3e]               17
4  O=C(/C=C/c1ccc(I)cc1)c1ccc(OCB(O)O)cc1 [Compound 7]               38

Would you kindly share the measured IC50 for O=C(/C=C/c1ccc(I)cc1)c1ccc(O)cc1 [Compound 6] ? 15

Would you kindly share the measured IC50 for O=C(/C=C/c1ccc(Cl)c(Cl)c1)c1ccc(B(O)O)cc1 [Compound 3b] ? 18

Would you kindly share the measured IC50 for O=C(/C=C/c1ccc(F)c(Cl)c1)c1ccc(B(O)O)cc1 [Compound 3c] ? 25

Would you kindly share the measured IC50 for O=C(O)COc1ccc(C(=O)/C=C/c2ccc(I)cc2)cc1 [Compound 3f] ? 44

Would you kindly share the measured IC50 for O=C(/C=C/c1ccc(F)c(F)c1)c1ccc(B(O)O)cc1 [Compound 3d] ? 18

Would you kindly share the measured IC50 for O=C(/C=C/c1ccc(Cl)c(Cl)c1)c1ccc(B(O)O)cc1 [Compound 8] ? 18

---

System: MDA-MB-231 (estrogen independent) human breast cancer cells
Test: MTT survival assay, MDA-MB-231 cells
Format: cell-based
Settings: MTT growth inhibition, 96 hours exposure
Reported pIC50 is given for each of the following compounds.
Please keep in mind that pIC50 is minus log10 of the molar concentration; only the number is needed.

Reference set (2 entries):
>>> df
                                   compound                             system_tested  measured_quantity  endpoint_result
0  O=C(O)COc1ccc(C(=O)/C=C/c2ccc(Cl)c(Cl)c2)cc1 [Compound 3g, reference compound]  MDA-MB-231 (estrogen independent) human breast cancer cells              pIC50             5.05
1  O=C(/C=C/c1ccc(Cl)c(Cl)c1)c1ccc(B(O)O)cc1 [Compound 3b]  MDA-MB-231 (estrogen independent) human breast cancer cells              pIC50             5.02

Give MDA-MB-231 (estrogen independent) human breast cancer cells pIC50 for O=C(/C=C/c1ccc(Cl)c(Cl)c1)c1ccc(B(O)O)cc1 [Compound 8] 5.10

---

System: MDA-MB-231 (estrogen independent) human breast cancer cells
Test: MTT survival assay, MDA-MB-231 cells
Format: cell-based
Settings: MTT growth inhibition, 96 hours exposure
measured quantity: IC50

>>> df
                                   molecule                             system_tested  endpoint_result
0  O=C(O)COc1ccc(C(=O)/C=C/c2ccc(I)cc2)cc1 [Compound 3f]  MDA-MB-231 (estrogen independent) human breast cancer cells            44 µM
1  O=C(/C=C/c1ccc(F)c(F)c1)c1ccc(B(O)O)cc1 [Compound 3d]  MDA-MB-231 (estrogen independent) human breast cancer cells           8.8 µM
2  O=C(/C=C/c1ccc(I)cc1)c1ccc(OCB(O)O)cc1 [Compound 7]  MDA-MB-231 (estrogen independent) human breast cancer cells            11 µM
3  O=C(/C=C/c1ccc(I)cc1)c1ccc(O)cc1 [Compound 6]  MDA-MB-231 (estrogen independent) human breast cancer cells             8 µM

Below: the item to evaluate.
Would you kindly share the measured IC50 for O=C(/C=C/c1ccc(F)c(Cl)c1)c1ccc(B(O)O)cc1 [Compound 3c] ? 8.5 µM

---

Test system: MDA-MB-231 (estrogen independent) human breast cancer cells
Experiment: MTT survival assay, MDA-MB-231 cells
Assay type: cell-based
Details: MTT growth inhibition, 96 hours exposure
measured quantity: pIC50
Please keep in mind that pIC50 is minus log10 of the molar concentration; only the number is needed.

Would you kindly share the measured pIC50 for O=C(/C=C/c1ccc(I)cc1)c1ccc(B(O)O)cc1 [Compound 3a] ? 5.06

Would you kindly share the measured pIC50 for O=C(/C=C/c1ccc(F)c(Br)c1)c1ccc(B(O)O)cc1 [Compound 3e] ? 5.02

Would you kindly share the measured pIC50 for O=C(O)COc1ccc(C(=O)/C=C/c2ccc(Cl)c(Cl)c2)cc1 [Compound 9, reference compound] ? 4.74
